As shown below, each of these compounds has a reported Percent Effect value.
Target: Histidine--tRNA ligase (Leishmania infantum) (UniProt A4I591)
Sequence (whole entry): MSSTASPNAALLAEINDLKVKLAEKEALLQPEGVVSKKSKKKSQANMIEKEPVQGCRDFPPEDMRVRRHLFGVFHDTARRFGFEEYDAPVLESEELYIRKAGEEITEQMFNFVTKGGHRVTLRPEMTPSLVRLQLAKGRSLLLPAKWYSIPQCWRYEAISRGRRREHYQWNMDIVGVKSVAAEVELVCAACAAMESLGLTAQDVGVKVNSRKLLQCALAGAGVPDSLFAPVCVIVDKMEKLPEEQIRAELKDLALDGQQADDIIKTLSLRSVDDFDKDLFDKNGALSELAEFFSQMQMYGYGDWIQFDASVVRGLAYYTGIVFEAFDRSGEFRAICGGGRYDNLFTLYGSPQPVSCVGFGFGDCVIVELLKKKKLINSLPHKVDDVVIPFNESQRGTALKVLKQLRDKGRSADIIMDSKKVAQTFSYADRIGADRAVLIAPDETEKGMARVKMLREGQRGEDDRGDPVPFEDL
Assay: Leishmania infantum Histidine tRNA synthetase (LdHisRS)
Assay type: functional
Set-up: scale not given: in the data most compounds retested in dose-response had high values
Settings: 30 µM
Out of some 69,000 compounds screened, about 420 (0.61%) showed an effect of 50% or more. The list comes from a sample in which strong results are over-represented; it also holds close analogues and randomly drawn compounds.
Please give a number only; it is taken to be in %.

Example cases with answers are listed next.
[
  {
    "Compound": "O=C1CO[C@H]2CN(S(=O)(=O)c3ccccc3)C[C@H]2N1CC1CCCCC1",
    "Quantity name": "Percent Effect",
    "Unit descriptor": "%",
    "Experimental value": 27.8
  },
  {
    "Compound": "CC(C(=O)NCc1ccc(N2CCNC(=O)C2)cc1)n1cncn1 (stereo unspecified)",
    "Quantity name": "Percent Effect",
    "Unit descriptor": "%",
    "Experimental value": 52
  },
  {
    "Compound": "CNc1[nH]nc(N)c1C(=O)Nc1ccccc1",
    "Quantity name": "Percent Effect",
    "Unit descriptor": "%",
    "Experimental value": -15
  },
  {
    "Compound": "Cc1cccnc1NC(=O)NCc1ccc(N2CCNC(=O)C2)cc1",
    "Quantity name": "Percent Effect",
    "Unit descriptor": "%",
    "Experimental value": 84.9
  },
  {
    "Compound": "CC(O)CNC(=O)NCc1ccc(N2CCNC(=O)C2)cc1 (stereo unspecified)",
    "Quantity name": "Percent Effect",
    "Unit descriptor": "%",
    "Experimental value": 49.3
  },
  {
    "Compound": "O=C(NC1CCCC1)C1Cc2nc(-c3ccsc3)sc2N1CC1CC1 (stereo unspecified)",
    "Quantity name": "Percent Effect",
    "Unit descriptor": "%",
    "Experimental value": 23.6
  },
  {
    "Compound": "CN(C)CCNC(=O)C1Cc2nc(-c3ccsc3)sc2N1CC1CC1 (stereo unspecified)",
    "Quantity name": "Percent Effect",
    "Unit descriptor": "%",
    "Experimental value": 22.2
  },
  {
    "Compound": "CNc1[nH]nc(N)c1NC(=O)c1ccccc1",
    "Quantity name": "Percent Effect",
    "Unit descriptor": "%",
    "Experimental value": 87.5
  },
  {
    "Compound": "Cc1nnc(NC(=O)NCc2ccc(N3CCNC(=O)C3)cc2)s1",
    "Quantity name": "Percent Effect",
    "Unit descriptor": "%",
    "Experimental value": 39.8
  },
  {
    "Compound": "CC(C(=O)NCc1ccc(N2CCNC(=O)C2)cc1)c1cccs1 (stereo unspecified)",
    "Quantity name": "Percent Effect",
    "Unit descriptor": "%",
    "Experimental value": 20.9
  }
]

// moving on: another record for Percent Effect
Q: Please report the recorded Percent Effect for COCCN1C(=O)CO[C@H]2CN(Cc3cccc(OC)c3F)C[C@@H]21 .
Result: 8.25

---

Collected Percent Effect values appear next to each entry.
Biological target: Histidine--tRNA ligase (Leishmania infantum) (UniProt A4I591)
Sequence (whole entry): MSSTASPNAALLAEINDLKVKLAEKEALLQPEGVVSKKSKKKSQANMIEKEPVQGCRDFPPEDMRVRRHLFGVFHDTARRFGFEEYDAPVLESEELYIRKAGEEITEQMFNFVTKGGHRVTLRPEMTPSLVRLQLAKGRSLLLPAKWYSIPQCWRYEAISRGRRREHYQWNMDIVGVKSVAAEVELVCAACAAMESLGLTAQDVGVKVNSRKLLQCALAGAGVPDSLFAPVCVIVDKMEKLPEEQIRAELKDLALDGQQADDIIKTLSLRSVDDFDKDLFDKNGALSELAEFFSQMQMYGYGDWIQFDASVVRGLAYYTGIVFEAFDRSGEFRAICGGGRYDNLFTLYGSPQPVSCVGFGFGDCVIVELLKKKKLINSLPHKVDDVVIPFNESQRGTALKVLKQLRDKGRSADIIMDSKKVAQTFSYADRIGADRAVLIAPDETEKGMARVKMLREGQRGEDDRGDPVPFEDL
Assay: Leishmania infantum Histidine tRNA synthetase (LdHisRS)
Assay type: functional
Set-up: scale not given: in the data most compounds retested in dose-response had high values
Settings: 30 µM
Screen size: about 69,000 compounds; about 420 (0.61%) showed an effect of 50% or more. This excerpt belongs to a sample that is enriched for strong results.
Your answer is read as %, so omit the unit and give the number.

[
  {
    "Compound": "O=C1NCCN1C1CCCN(Cc2coc(-c3ccc(F)cc3)n2)C1 (stereo not drawn)",
    "Unit descriptor": "%",
    "Percent Effect": 24.6
  },
  {
    "Compound": "Cn1nc2c(cc1=O)CN(CC(=O)Nc1ccc(Cl)cn1)CC2",
    "Unit descriptor": "%",
    "Percent Effect": 103
  },
  {
    "Compound": "CCn1nc2c(cc1=O)CN(Cc1coc(-c3ccccc3)n1)CC2",
    "Unit descriptor": "%",
    "Percent Effect": 14.9
  },
  {
    "Compound": "CC(C)c1nc(CN2CCCCC2)cs1",
    "Unit descriptor": "%",
    "Percent Effect": 0
  },
  {
    "Compound": "CC(C)c1nc(CN2CCC(CO)CC2)cs1",
    "Unit descriptor": "%",
    "Percent Effect": 13.2
  }
]

Q: Entry under review: Cn1cccc1C(=O)N[C@@H]1CN(Cc2cccs2)[C@@H]2COC[C@@H]21 . Reported Percent Effect?
Result: 5.71

Q: Record request: Percent Effect value, item CCOc1ccc2nc(CN3CCC(CNC(C)=O)C3)ccc2c1 (stereo not drawn)
Result: 37.3

Q: For the compound O=C1NCCN1C1CCN(Cc2coc(-c3ccc(F)cc3)n2)CC1 , what Percent Effect is on record?
Result: 9.82

Q: Which Percent Effect value belongs to CC1=N[C@@]2(CC[C@@H]3CN(C(=O)NC(C)C)C[C@@H]32)C(=O)N1CC1CC1 ?
Result: 11.1

Q: What value of Percent Effect has been recorded for this entry: Cn1nc2c(cc1=O)CN(Cc1coc(-c3ccc(F)cc3)n1)CC2
Result: 90.3

---

target: Histidine--tRNA ligase (Leishmania infantum) (UniProt A4I591); assay: Leishmania infantum Histidine tRNA synthetase (LdHisRS); format: functional; parameters: scale not given: in the data most compounds retested in dose-response had high values; settings: 30 µM
The whole screen tested about 69,000 compounds, of which about 420 (0.61%) showed an effect of 50% or more. The entries come from a sample that favours strong results as a whole.
Quantity name: Percent Effect (%)
Response body: numeric value in %, unit text excluded.

Solved cases below.
[
  {
    "Line notation": "CC(C)n1nc2c(cc1=O)CN(Cc1nc(-c3ccco3)no1)CC2",
    "Quantity name": "Percent Effect",
    "Unit descriptor": "%",
    "Experimental value": 2.67
  },
  {
    "Line notation": "Cc1cccc(Cl)c1NC(=O)Cn1cc(C(=O)O)ccc1=O",
    "Quantity name": "Percent Effect",
    "Unit descriptor": "%",
    "Experimental value": 18.3
  },
  {
    "Line notation": "Cc1c(Cl)cccc1NC(=O)Cn1cc(C(=O)O)ccc1=O",
    "Quantity name": "Percent Effect",
    "Unit descriptor": "%",
    "Experimental value": 55
  },
  {
    "Line notation": "Cn1nc2c(cc1=O)CN(Cc1ccc(-n3cccn3)cc1)CC2",
    "Quantity name": "Percent Effect",
    "Unit descriptor": "%",
    "Experimental value": 33.3
  },
  {
    "Line notation": "CN(C)CCN1C[C@@H]2CN(c3ccccc3)C[C@@H]2C1=O",
    "Quantity name": "Percent Effect",
    "Unit descriptor": "%",
    "Experimental value": 6.36
  }
]

In the following, a different compound is considered.
Q: Query (compound): Cc1ccc(Cl)cc1NC(=O)Cn1cc(C(=O)O)ccc1=O ; field requested: Percent Effect
Result: 6.67
